Listed next: entries and their corresponding Ki.
- tested_system: human motilin receptor (Homo sapiens, UniProt O43193)
- Construct: purchased PerkinElmer 6110544; host or cells: CHO cells, stably transfected
- Sequence (O43193 whole entry): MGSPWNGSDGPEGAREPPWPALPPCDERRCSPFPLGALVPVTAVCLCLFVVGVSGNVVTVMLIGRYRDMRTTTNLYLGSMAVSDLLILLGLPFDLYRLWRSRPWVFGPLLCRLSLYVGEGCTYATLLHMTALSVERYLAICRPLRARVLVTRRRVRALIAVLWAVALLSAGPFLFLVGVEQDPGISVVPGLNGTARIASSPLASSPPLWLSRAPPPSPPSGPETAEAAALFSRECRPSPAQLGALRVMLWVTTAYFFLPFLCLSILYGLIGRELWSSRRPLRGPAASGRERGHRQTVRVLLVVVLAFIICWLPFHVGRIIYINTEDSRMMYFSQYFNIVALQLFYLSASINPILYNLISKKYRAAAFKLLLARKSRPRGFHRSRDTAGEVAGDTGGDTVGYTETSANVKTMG
- protocol_description: Competitive radioligand binding assay (motilin receptor), Method B1
- condition_details: read-out: Binding Affinity [Ki (μM)]

| compound | tested_system | Ki |
| --- | --- | --- |
| CC(C)[C@H]1NC(=O)[C@@H](Cc2cccc(F)c2)N[C@H](C)COc2ccccc2CCCNC(=O)[C@H](CC2CC2)NC1=O | human motilin receptor (Homo sapiens, UniProt O43193) | 0.1 to 1 µM |

Would you kindly share the measured Ki for CC1COc2ccccc2CCCNC(=O)[C@H](CC2CC2)NC(=O)[C@@H](C(C)C)NC(=O)[C@@H](Cc2cccc(Cl)c2)N1 (stereo partly drawn) ?
0.001 to 0.1 µM

// returns reported Ki for input `CC(C)[C@H]1NC(=O)[C@@H](Cc2cccc(Cl)c2)NCCOc2ccccc2C[C@@H](O)CNC(=O)[C@H](CC2CC2)NC1=O`
0.001 to 0.1 µM

Hey, just so you know, these numbers are from patent US7452862B2.
